src = ChEMBL document CHEMBL1149933

System: Staphylococcus aureus
Assay: Inhibitory effect against methicillin resistant Staphylococcus aureus (A 27218), expressed as minimum inhibitory concentration
Format: functional
endpoint_name: MIC (µg/mL)
Answers are plain numbers, in µg/mL.

Consider the reported MIC for these compounds:
{"columns": ["compound", "target_of_assay", "unit_spec", "MIC"],
 "data": [
  ["O=C(CSc1cc(Cl)ccc1Cl)N[C@@H]1C(=O)N2C(C(=O)O)=C(COC(=O)c3ccncc3)CSC12 (some centres undefined)", "Staphylococcus aureus", "µg/mL", 0.5],
  ["N#Cc1ccc(C(=O)OCC2=C(C(=O)O)N3C(=O)[C@@H](NC(=O)CSc4cc(Cl)ccc4Cl)C3SC2)cc1 (some centres undefined)", "Staphylococcus aureus", "µg/mL", 0.125],
  ["O=C(CSc1cc(Cl)ccc1Cl)N[C@@H]1C(=O)N2C(C(=O)O)=C(COC(=O)c3ccc(O)cc3)CSC12 (some centres undefined)", "Staphylococcus aureus", "µg/mL", 0.06]
]}

Could you now consider this next compound?
Entry CN(C)c1ccc(C(=O)OCC2=C(C(=O)O)N3C(=O)[C@@H](NC(=O)CSc4cc(Cl)ccc4Cl)C3SC2)cc1 (some centres undefined) ; MIC = 0.125
